- MEASURED_TARGET: LRRK2(G2019S mutation, GST-LRRK2(amino acids 970-2527)) (Homo sapiens, UniProt Q5S007, G2019S)
- Construct: GST-LRRK2(amino acids 970-2527); GST (N); purchased Life Technologies Corporation
- Sequence (Q5S007 970-2527 G2019S): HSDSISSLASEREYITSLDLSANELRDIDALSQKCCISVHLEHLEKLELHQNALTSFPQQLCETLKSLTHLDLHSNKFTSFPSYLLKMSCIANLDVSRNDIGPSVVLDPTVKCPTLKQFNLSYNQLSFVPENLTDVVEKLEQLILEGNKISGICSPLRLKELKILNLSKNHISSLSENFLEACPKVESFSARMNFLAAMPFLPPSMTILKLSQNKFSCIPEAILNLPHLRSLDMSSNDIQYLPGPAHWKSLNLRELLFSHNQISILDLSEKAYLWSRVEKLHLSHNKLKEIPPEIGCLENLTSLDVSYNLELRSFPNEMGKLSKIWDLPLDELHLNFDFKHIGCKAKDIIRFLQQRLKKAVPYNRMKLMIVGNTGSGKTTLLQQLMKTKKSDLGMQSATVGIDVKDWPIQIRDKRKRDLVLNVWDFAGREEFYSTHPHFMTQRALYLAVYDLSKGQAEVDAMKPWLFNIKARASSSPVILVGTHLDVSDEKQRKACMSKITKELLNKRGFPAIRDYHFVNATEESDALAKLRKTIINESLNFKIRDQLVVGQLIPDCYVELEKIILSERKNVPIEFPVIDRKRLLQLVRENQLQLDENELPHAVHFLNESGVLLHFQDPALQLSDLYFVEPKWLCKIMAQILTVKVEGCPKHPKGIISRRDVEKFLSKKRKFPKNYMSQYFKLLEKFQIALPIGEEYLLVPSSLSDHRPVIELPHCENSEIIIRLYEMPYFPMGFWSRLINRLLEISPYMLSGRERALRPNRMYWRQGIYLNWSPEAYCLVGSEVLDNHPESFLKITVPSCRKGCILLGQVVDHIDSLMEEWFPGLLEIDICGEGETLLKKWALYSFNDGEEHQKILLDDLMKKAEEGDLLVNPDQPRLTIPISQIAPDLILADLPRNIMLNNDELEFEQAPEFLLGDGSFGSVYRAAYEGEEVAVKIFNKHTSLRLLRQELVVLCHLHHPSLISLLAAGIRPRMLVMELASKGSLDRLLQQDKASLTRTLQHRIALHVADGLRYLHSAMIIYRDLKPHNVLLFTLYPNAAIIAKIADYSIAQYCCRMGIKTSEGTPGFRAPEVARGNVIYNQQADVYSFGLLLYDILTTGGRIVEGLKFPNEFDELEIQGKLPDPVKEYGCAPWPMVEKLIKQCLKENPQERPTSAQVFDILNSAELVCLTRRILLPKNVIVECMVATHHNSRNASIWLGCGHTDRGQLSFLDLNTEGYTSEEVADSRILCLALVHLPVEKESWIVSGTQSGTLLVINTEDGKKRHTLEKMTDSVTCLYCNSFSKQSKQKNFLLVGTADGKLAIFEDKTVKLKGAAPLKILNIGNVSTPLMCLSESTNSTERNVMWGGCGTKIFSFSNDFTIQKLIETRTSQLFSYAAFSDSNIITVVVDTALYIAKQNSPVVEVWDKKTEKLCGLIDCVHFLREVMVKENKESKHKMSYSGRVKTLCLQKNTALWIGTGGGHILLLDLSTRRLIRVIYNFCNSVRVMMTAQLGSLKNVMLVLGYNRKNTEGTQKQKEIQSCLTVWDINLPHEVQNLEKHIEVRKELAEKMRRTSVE
- PROCEDURE_TEXT: LRRK2 Km ATP LanthaScreen Assay
- Assay type: biochemical
- CONDITION: Km ATP LanthaScreen Assay; LRRK2 G2019S; mean IC50 values; read-out: LRRK2 IC50
Below, each entry is listed with its recorded IC50.
PROPERTY: IC50 (nM)

COMPOUND	ASSAY_RESULT
CC(C)Oc1ccc2[nH]nc(-c3ccnc(N4C5CCC4COC5)c3)c2c1 [Example 282]	7.7
FC(F)(F)Oc1ccc2[nH]nc(-c3ccnc(N4CCN(c5ncccn5)CC4)c3)c2c1 [Example 235]	476
CC(C)Oc1ccc2[nH]nc(-c3ccnc(NC4CC4)c3)c2c1 [Example 137]	24.3
N#CC1(c2ccccc2)CCN(c2cc(-c3n[nH]c4ccccc34)ccn2)CC1 [Example 14]	67
FC1(F)CCN(c2cc(-c3n[nH]c4ccc(OC(F)(F)F)cc34)ccn2)CC1 [Example 243]	1060
FC(F)(F)Oc1ccc2[nH]nc(-c3ccnc(N4CCc5nc(C6CC6)oc5C4)c3)c2c1 [Example 252]	700
OC1(c2ccncc2)CCN(c2cc(-c3n[nH]c4ccccc34)ccn2)CC1 [Example 25]	21
CC(C)CCNc1cc(-c2n[nH]c3ccc(Nc4cccc(S(C)(=O)=O)c4)cc23)ccn1 [Example 110]	83

###

- MEASURED_TARGET: LRRK2(G2019S mutation, GST-LRRK2(amino acids 970-2527)) (Homo sapiens, UniProt Q5S007, G2019S)
- Construct: GST-LRRK2(amino acids 970-2527); GST (N); purchased Life Technologies Corporation
- PROCEDURE_TEXT: LRRK2 Km ATP LanthaScreen Assay
- Format: biochemical
- CONDITION: Km ATP LanthaScreen Assay; LRRK2 G2019S; mean IC50 values; read-out: LRRK2 IC50
- Experimental: Unless otherwise noted, all LRRK2 IC50 data presented in tables refers to the LRRK2 Km ATP LanthaScreen™ Assay that is described in the Biological Assay section. The data presented for the 5 mM and Km ATP LanthaScreen™ Assay represents mean IC50 values based on several test results and may have reasonable. deviations depending on the specific conditions and reagents used. […] Results are analysed using Assay Data Analyzer.
pIC50: −log10 of the molar value.
Below, each entry is listed with its recorded pIC50.
PROPERTY: pIC50

COMPOUND	ASSAY_RESULT
c1ccc2c(-c3ccnc(NC4COC4)c3)n[nH]c2c1	5.46
CCOc1ccc2[nH]nc(-c3ccnc(N4CC[C@@H](OC)C4)c3)c2c1	7.95
CN1CCC(CNc2cc(-c3n[nH]c4ccccc34)ccn2)C1 (centres unmarked)	7.33
OC1(c2cccnc2)CCN(c2cc(-c3n[nH]c4ccccc34)ccn2)CC1	7.72
COC1CCN(c2cc(-c3n[nH]c4ccc(-c5ccnc(O)c5)cc34)ccn2)CC1	8.96
CC(C)Oc1ccc2[nH]nc(-c3ccnc(NC(=O)C4CCOCC4)c3)c2c1	7.56
F[C@@H]1CCN(c2cc(-c3n[nH]c4ccc(OC(F)(F)F)cc34)ccn2)C1	6.69
CCOc1ccc2[nH]nc(-c3ccnc(N4CCC(n5cccn5)C4)c3)c2c1 (centres unmarked)	8.03
C1=CC(c2noc(C3CCN(c4cc(-c5n[nH]c6ccccc56)ccn4)CC3)n2)=CCC1	7.57
CC(C)Oc1ccc2[nH]nc(-c3ccnc(N4CC[C@H](O)C4)c3)c2c1	8.09
CCOc1ccc2[nH]nc(-c3ccnc(N4CCC(n5cccn5)CC4)c3)c2c1	7.84
FC1(F)CN(c2cc(-c3n[nH]c4ccc(OC(F)(F)F)cc34)ccn2)C1	6.43
CCOc1ccc2[nH]nc(-c3ccnc(N4CCC5OCCC54)c3)c2c1 (centres unmarked)	7.65
FC1(F)CCN(c2cc(-c3n[nH]c4ccc(OC(F)(F)F)cc34)ccn2)C1	5.83
O=C1CCCC2(CCN(c3cc(-c4n[nH]c5ccccc45)ccn3)CC2)N1	7.85
CS(=O)(=O)N1CCN(c2cc(-c3n[nH]c4ccccc34)ccn2)CC1	7.77
CC1=NC2(CCCN(c3cc(-c4n[nH]c5ccccc45)ccn3)C2)C(=O)N1 (centres unmarked)	6.69
COc1cnccc1-c1ccc2[nH]nc(-c3ccnc(N4CCOCC4)c3)c2c1	9.70
FC(F)(F)Oc1ccc2[nH]nc(-c3ccnc(N4CCN(n5cccn5)CC4)c3)c2c1	6.63
CN(C)c1cc(-c2n[nH]c3ccc(Nc4cccc(S(C)(=O)=O)c4)cc23)ccn1	7.47
CCOc1ccc2[nH]nc(-c3ccnc(N4CCC(F)(F)CC4)c3)c2c1	8.27
CN(C)[C@@H]1CCN(c2cc(-c3n[nH]c4ccccc34)ccn2)C1	7.55
CC(C)Oc1ccc2[nH]nc(-c3ccnc(NC(=O)C(C)C)c3)c2c1	7.40
CCOc1ccc2[nH]nc(-c3ccnc(N4CCC(F)(F)C4)c3)c2c1	7.87
OC1CCN(c2cc(-c3n[nH]c4ccccc34)ccn2)CC1	7.62
CC(C)Oc1ccc2[nH]nc(-c3ccnc(N4C5CCCC4CC5)c3)c2c1	7.75
CN(Cc1ccc2[nH]nc(-c3ccnc(N4CCOCC4)c3)c2c1)Cc1ccco1	7.89
CC(C)Oc1ccc2[nH]nc(-c3ccnc(NC(=O)C4CCCC4)c3)c2c1	7.27
COC1CCCN(c2cc(-c3n[nH]c4ccc(OC(C)C)cc34)ccn2)C1 (centres unmarked)	7.94
N#CCCNCc1ccc2[nH]nc(-c3ccnc(N4CCOCC4)c3)c2c1	7.52
OCCC1CN(c2cc(-c3n[nH]c4ccc(CO)cc34)ccn2)CCO1 (centres unmarked)	8.00
CC(C)Oc1ccc2[nH]nc(-c3ccnc(N4C[C@H](F)[C@@H](F)C4)c3)c2c1	8.18
COC1CN(c2cc(-c3n[nH]c4ccc(OC(F)(F)F)cc34)ccn2)C1	6.54
CC(C)Oc1ccc2[nH]nc(-c3ccnc(NC(=O)c4cc(F)cc(F)c4)c3)c2c1	6.77
CC(C)Oc1ccc2[nH]nc(-c3ccnc(N4CC(O)(C(F)(F)F)C4)c3)c2c1	7.97
